Tested on: Mycobacterium tuberculosis
Measurement notes: Cornell M. t heat shock assay; further: in the data most compounds retested in dose-response had high values
Format: functional, organism-based
Design: dose or concentration left out as unconfirmed
Among all 69,000 compounds or so, about 950 (1.4%) showed an effect of 50% or more. Many of the other results were omitted from the sample, so strong results are more common in it than they were.
Readout label: Percent Effect
Your reply should be a number followed by the unit it is expressed in.

Recorded Percent Effect, per entry:
CCc1nc(N2CCCC(CCCOC)C2)c2cnn(C)c2n1 (stereo not drawn) = -4.574%
Cc1ccccc1C1CCN(CCn2cc(-c3nccn3C)nn2)C1 (stereo not drawn) = 32.84%

Supply recorded Percent Effect for CCOCC1CN(Cc2ccccn2)Cc2nn(CC3CC3)cc21.O=C(O)C(F)(F)F.O=C(O)C(F)(F)F (stereo not drawn) here.
-24.37%

Supply recorded Percent Effect for CCCOC1CCCN(c2nc(COC)nc3c2cnn3C)C1 (stereo not drawn) here.
67.42%

Supply recorded Percent Effect for Cl.N[C@@H](Cc1ccccc1)c1nnc(S(=O)(=O)Cc2cccc(Cl)c2)o1 here.
-4.264%

Supply recorded Percent Effect for O=C(c1cccnc1O)N1CCN(CCc2cccs2)CC1 here.
3.025%

Supply recorded Percent Effect for Cc1ccccc1C1CCN(CCn2cc(-c3nccs3)nn2)C1 (stereo not drawn) here.
59.14%

###

System: Mycobacterium tuberculosis
Measurement notes: Cornell M. t heat shock assay; further: in the data most compounds retested in dose-response had high values
Format: functional, organism-based
Parameters: dose or concentration left out as unconfirmed
In all, about 69,000 compounds went through this assay and about 950 (1.4%) showed an effect of 50% or more. For the sample, strong results were picked, then their nearest neighbours and some compounds at random.
# Lookup of reported Percent Effect keyed by entry
Enter your answer as a number in %; do not include the unit.

O=C(O)C(F)(F)F.O=C(c1ccco1)N1CC2(CCNCC2)c2cc(Cl)ccc21 = -24.85
Cc1cc(CNc2nccc(N)n2)c2[nH]c(C)c(C)c2c1 = 6.431
CN(C)C(=O)C1OC2(CCNCC2)c2ccccc21.O=C(O)C(F)(F)F (configuration not stated) = -39.36
CNc1nc(C)cc(NCc2cc(C)cc3c(C)c(C)[nH]c23)n1 = 64.43

Supply recorded Percent Effect for Cc1ccc(CN2CC[C@@H](NC(=O)c3cccnc3)[C@H](O)C2)o1 here.
8.326

Supply recorded Percent Effect for CCc1[nH]c2c(CNc3cncc(C(=O)N(C)C)n3)cc(C)cc2c1C here.
-0.9488

Supply recorded Percent Effect for CCOCC1CN(C(=O)c2cc(C)oc2C)Cc2c1cnn2C.O=C(O)C(F)(F)F (configuration not stated) here.
38.21

Supply recorded Percent Effect for Cc1csc2ncc(-c3ccnc(N4CCC[C@@H]4CO)n3)c(=O)n12 here.
-11.68

Supply recorded Percent Effect for COCc1nn(C(C)C)c2c1CCN(Cc1ccoc1)C2.O=C(O)C(F)(F)F here.
-50.08

Supply recorded Percent Effect for Cc1ccc(CN(C(=O)NCCNC(=O)c2cccnc2)C(C)C)o1 here.
-12.97

Supply recorded Percent Effect for Cc1cccnc1CN(C)C(C(=O)O)c1ccc(-c2ccn[nH]2)cc1 (configuration not stated) here.
46.05

Supply recorded Percent Effect for CCc1[nH]c2c(CNC(=O)C3CNC(=O)C3)cc(C)cc2c1C (configuration not stated) here.
7.867

Supply recorded Percent Effect for Cc1cc(CNc2cncc(C(=O)N(C)C)n2)c2[nH]c(C)c(C)c2c1 here.
-11.36

Supply recorded Percent Effect for Cc1ccc(CCNC(=O)c2cccnc2)o1 here.
80.23

Supply recorded Percent Effect for CCc1oc(C(=O)N2CC[C@H]3CC[C@@H](C2)N3)cc1CN(CC)CC here.
-18.46

Supply recorded Percent Effect for CCc1[nH]c2c(CNc3cnccn3)cc(F)cc2c1C here.
27.04

Supply recorded Percent Effect for Cc1nccn1-c1cccc(C2CCCN2)n1.Cl (configuration not stated) here.
-11.58

Supply recorded Percent Effect for O=C(O)C(F)(F)F.O=C1CC[C@H]2[C@H](CCN2C(=O)C2CCCO2)N1Cc1cccnc1 (some centres not stated) here.
1.298

Supply recorded Percent Effect for Cc1nc(C2(O)CCCNCC2)sc1CCOc1ccc(F)cc1.Cl (configuration not stated) here.
-29.66

Supply recorded Percent Effect for Cc1ccc(-c2cc(C3CCNCC3)nc(C)n2)cc1.Cl here.
-12.8

Supply recorded Percent Effect for O=C(O)C(F)(F)F.O=C(c1ccc[nH]1)N1CCn2cc(Cn3cccn3)nc2C1 here.
-0.1806

Supply recorded Percent Effect for Cc1cccnc1CN(C)C(C(=O)O)c1ccc(-n2cccn2)cc1 (configuration not stated) here.
85.61

###

Tested on: Mycobacterium tuberculosis
Measurement notes: Cornell M. t heat shock assay; further: in the data most compounds retested in dose-response had high values
Assay type: functional, organism-based
Set-up: dose or concentration left out as unconfirmed
Out of some 69,000 compounds screened, about 950 (1.4%) showed an effect of 50% or more. For the sample, strong results were picked, then their nearest neighbours and some compounds at random.
Readout label: Percent Effect (%)
Enter your answer as a number in %; do not include the unit.

Recorded Percent Effect, per entry:
Br.Cc1cc(C)c(N(CC(O)CNCc2ccccc2)S(C)(=O)=O)c(C)c1 (stereo not given) = 3.921
COc1ccc(CNC(=O)C2=NN(c3ccc(C)cc3)C(=O)CN2)cc1 = 24.03
CC(N)Cc1ccccc1Sc1ccccc1.O=C(O)/C=C\C(=O)O (stereo not given) = 31.83
CC1N(C)C(=O)COC12CCN(Cc1nccs1)CC2.O=C(O)C(F)(F)F (stereo not given) = 2.077
CNC(C)Cc1ccccc1Sc1ccc(O)cc1.Cl (stereo not given) = 5.856

Proceeding to the next compound to report its Percent Effect.
Supply recorded Percent Effect for Cc1c(C2CCCN(C(=O)c3ccncc3)C2)n2c(nc1=O)CCC2.Cl (stereo not given) here.
-13.79

###

System: Mycobacterium tuberculosis
Measurement notes: Cornell M. t heat shock assay; further: in the data most compounds retested in dose-response had high values
Assay type: functional, organism-based
Set-up: dose or concentration left out as unconfirmed
In all, about 69,000 compounds went through this assay and about 950 (1.4%) showed an effect of 50% or more. This excerpt belongs to a sample that is enriched for strong results.
Readout label: Percent Effect (%)
Enter your answer as a number in %; do not include the unit.

CC(Nc1nc(-c2ccccc2)nc2c1CCNCC2)c1cccnc1 (stereo not drawn) = 73.2
Cc1nc(N(C)C)nc2c1COCC21CCN(CC2CC2)C1.O=C(O)C(F)(F)F (stereo not drawn) = 4.702
CC(Nc1nc(-c2ccccc2)nc2c1CCNCC2)c1nccs1 (stereo not drawn) = 20.74
CCS(=O)(=O)N1CC(=O)N(CCCc2ccccc2)CC(O)C1 (stereo not drawn) = -6.774
COc1cccc(CN2CC(O)CN(S(C)(=O)=O)CC2=O)c1OC (stereo not drawn) = 29.18

Supply recorded Percent Effect for CC(C)c1cc(C(=O)N2CCCC(n3cncn3)C2)n[nH]1 (stereo not drawn) here.
-20.76

Supply recorded Percent Effect for CSc1nc(N)c2c(n1)N=C1COC(O)=C1C2c1cccc(O)c1 (stereo not drawn) here.
4.116

Supply recorded Percent Effect for CCS(=O)(=O)N1CC(=O)N(Cc2ccccc2OC)CC(O)C1 (stereo not drawn) here.
62.67

Supply recorded Percent Effect for Cc1nc(C)n(CC2CCCN(c3ncnc4ccsc34)C2)n1 (stereo not drawn) here.
56.12

###

# Lookup of reported Percent Effect keyed by entry
System: Mycobacterium tuberculosis
Measurement notes: Cornell M. t heat shock assay; further: in the data most compounds retested in dose-response had high values
Assay type: functional, organism-based
Design: dose or concentration left out as unconfirmed
In all, about 69,000 compounds went through this assay and about 950 (1.4%) showed an effect of 50% or more. This excerpt belongs to a sample that is enriched for strong results.
Enter your answer as a number in %; do not include the unit.

Recorded Percent Effect, per entry:
CC(C)C(=O)Nc1cc(C(=O)NC2CC(C)(C)NC(C)(C)C2)nn1C = -49.16
CC(C)C(=O)Nc1cc(C(C)(C)C)nn1-c1ccccn1 = 4.241

Supply recorded Percent Effect for O=C(O)C(F)(F)F.O=C(c1ccoc1)N1CC[C@@H]2O[C@@H](COCCN3CCCC3)CC[C@@H]21 here.
-1.941

Supply recorded Percent Effect for CN(C)C(=O)N1C[C@@H]2CC[C@H](C1)N(S(=O)(=O)c1cccnc1)C2 here.
-21.11

Supply recorded Percent Effect for N#CCCN(CCC#N)C(=O)c1ccc(OCC2CC2)cc1 here.
94.69

Supply recorded Percent Effect for Cc1cc(NC(=O)C(C)C)n(-c2nc(C)c(C)c(=O)[nH]2)n1 here.
104.4

###

Test system: Mycobacterium tuberculosis
Measurement notes: Cornell M. t heat shock assay; further: in the data most compounds retested in dose-response had high values
Assay type: functional, organism-based
Design: dose or concentration left out as unconfirmed
The campaign covered roughly 69,000 compounds. About 950 (1.4%) showed an effect of 50% or more. The entries come from a sample that favours strong results as a whole.
Readout label: Percent Effect (%)
Enter your answer as a number in %; do not include the unit.

Recorded Percent Effect, per entry:
Cc1ccc(S(=O)(=O)Nc2ccc(N3CCSCC3)c(C(=O)O)c2)s1 = -1.51
COc1cc(N2CC[C@H]3O[C@@H](C(=O)NC4CCCC4)CC[C@H]32)ncn1.O=C(O)C(F)(F)F = -0.9791
COc1ccc(-c2nc(CN3CCc4c(ncn4C)C3)cs2)cc1 = 174
COCCC(=O)N1CC[C@@H](N2CCOCC2)[C@@H]1Cc1ccccc1.O=C(O)C(F)(F)F = -10.34

Supply recorded Percent Effect for c1ccc(-c2nc(CN3CCc4c(ncn4C4CC4)C3)cs2)cc1 here.
62.99
